Can you tell me pKi for the items I'm about to list?
# tested_target: human CB2 receptor (Homo sapiens)
# Construct: expressed in transfected cells; host or cells: CHO-K1
# Sequence (P34972 whole entry): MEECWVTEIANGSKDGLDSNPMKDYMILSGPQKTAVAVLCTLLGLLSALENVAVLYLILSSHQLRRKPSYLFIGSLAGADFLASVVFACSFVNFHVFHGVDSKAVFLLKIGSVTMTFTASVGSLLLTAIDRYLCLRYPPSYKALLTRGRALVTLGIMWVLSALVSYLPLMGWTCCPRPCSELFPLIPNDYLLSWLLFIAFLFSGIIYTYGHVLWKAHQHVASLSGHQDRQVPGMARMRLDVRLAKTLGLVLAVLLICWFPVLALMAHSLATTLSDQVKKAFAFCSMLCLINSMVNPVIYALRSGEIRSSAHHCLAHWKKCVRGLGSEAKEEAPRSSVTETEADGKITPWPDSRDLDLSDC
# assay_explanation: Displacement of 3H-CP55,940 in human CB2 receptor-transfected cells (CHO-K1)
# Assay type: binding
# recorded_conditions: read-out: Ki, displacement of 3H-CP55940; human CB2 transfected cells; radioligand 3H-CP55940; Tables 6 and 7
Numbers only, as −log10 of the molar value.

Cc1c(C(=O)NC(C)C)nn(-c2ccc(Cl)cc2Cl)c1-c1ccc(Cl)cc1 [MF9725-65-11] = 5.76
Cc1c(C(=O)NO)nn(-c2ccc(Cl)cc2Cl)c1-c1ccc(Cl)cc1 [MF9725-131-25] = 5.11

Alright, here's another compound for you.
Q) Please give measured pKi of the following entry: CCNC(=O)c1nn(-c2ccc(Cl)cc2Cl)c(-c2ccc(Cl)cc2)c1C [MF9725-54C]
A) 5.51
